- System: HOP-62 NSCLC
- protocol notes: NCI tumour cell line growth inhibition, 48 h
Entries and their measured TGI follow.

The examples below pair each entry with its known result.
[
  {
    "molecule": "N#Cc1ccc(Nc2cnc3ccc(N)cc3n2)cc1",
    "TGI": "> 100 µM"
  },
  {
    "molecule": "COc1cc([C@@H]2c3cc4c(cc3[C@@H](N=Cc3ccc(C(=O)O[C@@H](C(=O)O[C@H]5C[C@@]6(O)[C@@H](OC(=O)c7ccccc7)[C@@H]7[C@]8(OC(C)=O)CO[C@@H]8C[C@H](O)[C@@]7(C)C(=O)[C@H](OC(C)=O)C(=C5C)C6(C)C)[C@@H](NC(=O)c5ccccc5)c5ccccc5)cc3)[C@H]3COC(=O)[C@H]23)OCO4)cc(OC)c1O",
    "TGI": "> 50 µM"
  },
  {
    "molecule": "CC1CC(=O)Nc2ccc(N=NN(C)C)cc2N1C=O (stereo not given)",
    "TGI": "> 100 µM"
  },
  {
    "molecule": "CCOC(=O)c1cn(CC)c2cc3c(cc2c1=O)CCS3(=O)=O",
    "TGI": "> 100 µM"
  },
  {
    "molecule": "C[C@H](CN1CC(=O)NC(=O)C1)N1CC(=O)NC(=O)C1",
    "TGI": "> 100 µM"
  },
  {
    "molecule": "O=C1c2cc(-c3ccccc3)ccc2-c2c1c1ccc([N+](=O)[O-])cc1c(=O)n2CCCBr",
    "TGI": "> 50 µM"
  },
  {
    "molecule": "O=C(Cn1c(=O)oc2ccc(C(=O)c3ccccc3Cl)cc21)c1ccc([N+](=O)[O-])cc1",
    "TGI": "> 100 µM"
  },
  {
    "molecule": "Cn1c(N=[N+]=[N-])cc(=O)n(C)c1=O",
    "TGI": "> 100 µM"
  }
]

Retrieve TGI measured for COc1ccc(-c2nnc(-c3c(C)n(C)n(-c4ccccc4)c3=O)o2)cc1 and print it.
> 100 µM

Tell me measured TGI for COc1ccc(OC)c(NCC#N)c1 please.
> 100 µM

Consider the molecule Cc1ccc(S(=O)(=O)C2c3nc4ccccc4cc3-c3nc4ccccc4nc32)cc1 (stereo not given) and give its recorded TGI.
> 100 µM

Read off the recorded TGI for Clc1ccc2nc(CC3CCCC3)[nH]c2c1
32.7 µM

Fill in TGI for record NC(=O)c1ncn2c(=O)n(CCl)nnc12
> 100 µM

Specify reported TGI for the molecule shown: COc1cc([C@H]2c3cc4c(cc3[C@H](NCc3ccc([N+](=O)[O-])cc3)C3COC(=O)[C@H]32)OCO4)cc(OC)c1O (stereo not given in full)
0.784 µM

Name the recorded TGI of the item N#CCSc1c(-c2ccccc2)c(=O)n(-c2ccccc2)c(=S)n1-c1ccccc1 in your answer.
> 100 µM
